FYI, the data here is from ChEMBL document CHEMBL4811250.

Tested on: Isocitrate dehydrogenase [NADP] cytoplasmic (Homo sapiens), O75874 [R132C]
Sequence (O75874 whole entry R132C): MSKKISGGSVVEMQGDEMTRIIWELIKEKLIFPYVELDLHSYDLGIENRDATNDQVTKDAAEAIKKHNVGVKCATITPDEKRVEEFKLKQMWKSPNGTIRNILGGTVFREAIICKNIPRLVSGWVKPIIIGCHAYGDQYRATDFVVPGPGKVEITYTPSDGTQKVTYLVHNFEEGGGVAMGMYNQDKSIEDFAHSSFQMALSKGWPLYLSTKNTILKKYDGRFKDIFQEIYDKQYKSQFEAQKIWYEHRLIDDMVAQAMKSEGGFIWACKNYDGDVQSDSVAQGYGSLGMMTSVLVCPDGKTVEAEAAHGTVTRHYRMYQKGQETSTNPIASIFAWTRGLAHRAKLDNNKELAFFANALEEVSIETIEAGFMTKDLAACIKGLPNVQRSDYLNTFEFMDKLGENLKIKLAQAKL
test.name: Inhibition of IDH1 R132C mutant (unknown origin) assessed as reduction in NADPH consumption using alpha-KG as substrate at 38 uM incubated for 5 mins by diaphorase/resazurin-coupled system relative to control
Given measured inhibition, output criterion met if it is greater than or equal to 80% and criterion not met if not.

> print(dat)
                                   compound                cat
1  COc1cccc(-n2c3c(cc(-c4nc(-c5ccc(Cl)cc5)cs4)c2=O)C(=O)CC(C)(C)C3)c1OC  criterion not met
2  CC1(C)CC(=O)c2cc(-c3nc(-c4ccc(Cl)cc4)cs3)c(=O)n(-c3ccccn3)c2C1  criterion not met
3  CCc1cccc(CC)c1-n1c(C)c(C(=O)NC(C)C)cc(-c2nc(-c3ccc(Cl)cc3)cs2)c1=O  criterion not met
4  CCc1cccc(CC)c1-n1c(C)c(C(=O)N2CCCCC2)cc(-c2nc(-c3ccc(Cl)cc3)cs2)c1=O  criterion not met
5  COC(=O)c1ccsc1-n1c2c(cc(-c3nc(-c4ccc(Cl)cc4)cs3)c1=O)C(=O)CC(C)(C)C2      criterion met

Prompt: Please indicate if the recorded inhibition for CC1(C)CC(=O)c2cc(-c3nc(-c4ccc(Cl)cc4)cs3)c(=O)n(-c3ccccc3Oc3ccccc3)c2C1 meets or exceeds 80%.
Response: criterion not met

Prompt: Please indicate if the recorded inhibition for COc1ccc(OC)c(-n2c3c(cc(-c4nc(-c5ccc(Cl)cc5)c[nH]4)c2=O)C(=O)CC(C)(C)C3)c1 meets or exceeds 80%.
Response: criterion not met

Prompt: Please indicate if the recorded inhibition for COc1c(C(=O)O)cccc1-n1c2c(cc(-c3nc(-c4ccc(Cl)cc4)cs3)c1=O)C(=O)CC(C)(C)C2 meets or exceeds 80%.
Response: criterion not met

Prompt: Please indicate if the recorded inhibition for COc1ccc(C(=O)O)cc1-n1c2c(cc(-c3nc(-c4ccc(Cl)cc4)cs3)c1=O)C(=O)CC(C)(C)C2 meets or exceeds 80%.
Response: criterion met

Prompt: Please indicate if the recorded inhibition for CC1(C)CC(=O)c2cc(-c3nc(-c4ccc(Cl)cc4)cs3)c(=O)n(-c3sccc3C#N)c2C1 meets or exceeds 80%.
Response: criterion met
